Measurement Description: Solubility of the compound in PBS
Type: physicochemical
Result Type: solubility (µg/mL)

[A] COc1cccc(-c2c(F)cc(-n3nnc4c3C(=O)c3ccccc3C4=O)cc2F)c1
[B] O=C1c2ccccc2C(=O)c2c1nnn2-c1cc(F)c(-c2cccc(CO)c2)c(F)c1
Two entries are listed, A and B . Which one carries the higher solubility? Output the label that corresponds to your choice. A

* * *

System: A-375
Measurement Description: Antiproliferative activity against human A375 cells assessed as reduction in cell viability measured after 48 hrs by MTT assay
Assay type: functional, cell-based
Condition Context: Homo sapiens, A-375, 48 h
Result Type: IC50 (nM)

Example entries begin here.
State its IC50 on A-375: "COC(=O)Cc1cccc(-c2c(F)cc(-n3nnc4c3C(=O)c3ccccc3C4=O)cc2F)c1" 420

State its IC50 on A-375: "Nc1ccccc1-c1ccc(-n2nnc3c2C(=O)c2ccccc2C3=O)cc1" 1930

State its IC50 on A-375: "O=C1c2ccccc2C(=O)c2c1nnn2-c1cc(F)c(-c2ccccc2F)c(F)c1" 20

State its IC50 on A-375: "CN(C)c1cccc(-c2c(F)cc(-n3nnc4c3C(=O)c3ccccc3C4=O)cc2F)c1" 20

State its IC50 on A-375: "Nc1ccc(-c2ccc(-n3nnc4c3C(=O)c3ccccc3C4=O)cc2)cc1" 1900

[A] COCc1cccc(-c2c(F)cc(-n3nnc4c3C(=O)c3ccccc3C4=O)cc2F)c1
[B] COc1cccc(-c2c(F)cc(-n3nnc4c3C(=O)c3ccccc3C4=O)cc2F)c1
Hello, I am sorting some records. Could you say if A or B has the smaller IC50 value? Output the label that corresponds to your choice. B
(B: 40 nM, A: 180 nM)
